Experiment: Photometric activity determination of 7β-HSDH and mutants (decrease in absorbance at 340 nm, DHCA reduction with NADPH)
Assay type: biochemical
Conditions: Table 4, variants modified at position 64; 10 mM DHCA, NADPH, KPi pH 8.0
Quick list: Specific activity per entry.

| molecule | Specific activity [U/mg] |
| --- | --- |
| 7β-HSDH [R64I]: 7β-HSDH mutant, R in position 64 replaced by I (protein, UniProt A4ECA9 1-263, looked up, variant R64I) 7beta-hydroxysteroid …: MNLREKYGEWGLILGATEGVGKAFCEKIAAGGMNVVMVGRREEKLNVLAGEIRETYGVETKVVIADFSQPGAAETVFAATEGLDMGFMSYVACLHSFGKIQDTPWEKHEAMINVNVVTFLKCFHHYMRIFAAQDRGAVINVSSMTGISSSPWNGQYGAGKAFILKMTEAVACECEGTGVDVEVITLGTTLTPSLLSNLPGGPQGEAVMKIALTPEECVDEAFEKLGKELSVIAGQRNKDSVHDWKANHTEDEYIRYMGSFYRD | 9.83 |
| 7β-HSDH [R64D]: 7β-HSDH mutant, arginine in position 64 exchanged for aspartic acid (D) (protein, UniProt A4ECA9 1-263, looked up, variant R64D) 7beta-hydroxysteroid …: MNLREKYGEWGLILGATEGVGKAFCEKIAAGGMNVVMVGRREEKLNVLAGEIRETYGVETKVVDADFSQPGAAETVFAATEGLDMGFMSYVACLHSFGKIQDTPWEKHEAMINVNVVTFLKCFHHYMRIFAAQDRGAVINVSSMTGISSSPWNGQYGAGKAFILKMTEAVACECEGTGVDVEVITLGTTLTPSLLSNLPGGPQGEAVMKIALTPEECVDEAFEKLGKELSVIAGQRNKDSVHDWKANHTEDEYIRYMGSFYRD | 32.1 |
| 7β-HSDH [R64N]: 7β-HSDH mutant, R in position 64 replaced by N (protein, UniProt A4ECA9 1-263, looked up, variant R64N) 7beta-hydroxysteroid …: MNLREKYGEWGLILGATEGVGKAFCEKIAAGGMNVVMVGRREEKLNVLAGEIRETYGVETKVVNADFSQPGAAETVFAATEGLDMGFMSYVACLHSFGKIQDTPWEKHEAMINVNVVTFLKCFHHYMRIFAAQDRGAVINVSSMTGISSSPWNGQYGAGKAFILKMTEAVACECEGTGVDVEVITLGTTLTPSLLSNLPGGPQGEAVMKIALTPEECVDEAFEKLGKELSVIAGQRNKDSVHDWKANHTEDEYIRYMGSFYRD | 0.6 |
| 7β-HSDH [R64F]: 7β-HSDH mutant, R in position 64 replaced by F (protein, UniProt A4ECA9 1-263, looked up, variant R64F) 7beta-hydroxysteroid …: MNLREKYGEWGLILGATEGVGKAFCEKIAAGGMNVVMVGRREEKLNVLAGEIRETYGVETKVVFADFSQPGAAETVFAATEGLDMGFMSYVACLHSFGKIQDTPWEKHEAMINVNVVTFLKCFHHYMRIFAAQDRGAVINVSSMTGISSSPWNGQYGAGKAFILKMTEAVACECEGTGVDVEVITLGTTLTPSLLSNLPGGPQGEAVMKIALTPEECVDEAFEKLGKELSVIAGQRNKDSVHDWKANHTEDEYIRYMGSFYRD | 10.5 |
